Tested Target: T1, human GREM1 (hGREM1-His; SEQ ID NO: 595) (human, UniProt O60565 25-184)
T1 construct: also called biotin-hGREM1-His; recombinant human GREM1 protein
T1 sequence: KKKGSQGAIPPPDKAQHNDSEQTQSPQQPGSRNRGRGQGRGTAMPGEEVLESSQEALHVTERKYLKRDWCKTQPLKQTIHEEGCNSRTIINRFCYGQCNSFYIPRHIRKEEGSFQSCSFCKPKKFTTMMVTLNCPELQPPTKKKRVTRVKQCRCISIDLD
Protocol Details: SPR, Biacore T200, 37 C, mAb captured, hGREM1-His injected;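 further: HBS-EP running buffer containing heparin, association and dissociation phases tracked, KD computed as koff over kon and half-life derived from koff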
Binary call on kon with cut-off 100000 M⁻¹ s⁻¹: strictly below means MET, and equality or higher means NOT MET.

Please review the following examples before continuing.
**Query** Does the reported kon of the following binder sit strictly below 100000 M⁻¹ s⁻¹? H4H6270P (antibody, human IgG4, V domains shown, H4H prefix = human IgG4 Fc) VH: QVQLVESGGDVVQPGRSLRLSCAASGFTFSSYGMHWVRQAPGKGLEWVAIIWNDGSNKYYTDSVKGRFTISRDNSKNTLYLQMNGLRAEDTAIYYCARDQDQFDYWGQGTLVTVSS VL: EIVMTQSPATLSVSPGERATLSCRASQSISTNLAWYRQKPGQAPRLLIYDASTRATGIPARFSGSGSGTDFTLTISSLQSEDFAVYYCQQYSNWPPYTFGQGTKLEIK
**Result** MET

**Query** Does the reported kon of the following binder sit strictly below 100000 M⁻¹ s⁻¹? H4H2926N (antibody, human IgG4, V domains shown, H4H prefix = human IgG4 Fc) VH: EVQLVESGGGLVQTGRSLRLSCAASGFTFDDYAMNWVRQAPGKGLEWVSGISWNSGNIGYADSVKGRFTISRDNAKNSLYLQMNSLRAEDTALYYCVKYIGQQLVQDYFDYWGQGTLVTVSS VL: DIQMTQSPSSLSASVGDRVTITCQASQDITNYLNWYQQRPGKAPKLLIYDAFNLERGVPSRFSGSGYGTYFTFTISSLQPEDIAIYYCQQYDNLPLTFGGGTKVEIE
**Result** NOT MET

**Query** Does the reported kon of the following binder sit strictly below 100000 M⁻¹ s⁻¹? H4H6269P (antibody, human IgG4, V domains shown, H4H prefix = human IgG4 Fc) VH: QVQLQESGPGLVKPSQTLSLTCTVSGGSISSGGYYWTWIRQHPGKGLEWIGYIYYSGSTYYNPSLKSRVTMSVDTSKNQFSLKLSSVTAADTAVYYCARLLDFDYWGQGTLVTVSS VL: AIQMTQSPSSLSASVGDRVTITCRASQGIRNDLGWYQQKPGKAPKLLIYAASSLQSGVPSRFSGSGSGRDFTLTISSLQPEDFASYYCLQDHNYPLTFGGGTKVEIK
**Result** NOT MET

Attention now turns to another entry.
**Query** Does the reported kon of the following binder sit strictly below 100000 M⁻¹ s⁻¹? H4H2783N2 (antibody, human IgG4, V domains shown, H4H prefix = human IgG4 Fc) VH: EVQLLESGGGLVQPGGSLRLSCAASGFTFSSYVMNWVRQAPGKGLEWVSAISGSGGSTYYADSVKGRSTISRDNSKNTLYLQMNSLRAEDTAIYYCAKGDIAAIVFDAFDIWGQGTVVTVSS VL: DIQMTQSPSSLSASVGDRVTITCQASQDISSALNWYQHKPGKAPKLLIYDASYLETGVPSRFSGSGSGTDFTFTISSLQPEDIATYYCQQYDNLPYTFGQGTKLEIK
**Result** MET
